Method summary: qHTS of small molecules that selectively kill Giardia lamblia: Hit Validation.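 Note: viability measured as ATP content by luminescence so killing lowers signal; trophozoites exposed to compounds for 48 h anaerobically at 37 °C; nearly all actives have a fitted effect of over 65% in size.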
Measurement context: Giardia lamblia trophozoite viability, dose-response; series mostly up to 38.3 µM
Out of some 1,300 compounds screened, about 1,000 (77%) were called active. Inconclusive results (about 7%) are left out. Calls come from the whole dose curve; as a rule, active = well fitted inhibition curve with a large enough effect; inconclusive = small, poorly fitted or top-dose-only effect; inactive = no such curve, though single readings can be large or run the other way. So high a share suggests a set chosen from earlier hits. The list shows a part of the results.
// allowed return values: y (active), n (inactive)

Input line: Identify the outcome logged in this assay for the compound shown: O=[N+]([O-])c1nn(-c2ccc3c(c2)OCCO3)n(O)c1=NCCC1=CCCCC1
Output line: y

Input line: Identify the outcome logged in this assay for the compound shown: CCOC(=O)N/N=C\c1ccc([N+](=O)[O-])o1
Output line: y

Input line: Identify the outcome logged in this assay for the compound shown: O=C(N/N=C\c1ccc([N+](=O)[O-])s1)c1cncc(Br)c1
Output line: y

Input line: Identify the outcome logged in this assay for the compound shown: Brc1ccc(CNc2nc3ccccc3n2CCN2CCCCC2)cc1
Output line: y

Input line: Identify the outcome logged in this assay for the compound shown: C#CCCOC(=O)Nc1ccccc1
Output line: n

Input line: Identify the outcome logged in this assay for the compound shown: CCCCNC(=O)/C(=C\c1ccc([N+](=O)[O-])o1)NC(=O)c1ccccc1
Output line: y

Input line: Identify the outcome logged in this assay for the compound shown: COc1cc(/C=C2\COC/C(=C\c3cc(OC)c(OC)c(OC)c3)C2=O)cc(OC)c1OC
Output line: y

Input line: Identify the outcome logged in this assay for the compound shown: O=C(CSc1ccc(Cl)cc1)N/N=C/c1ccc([N+](=O)[O-])o1
Output line: y

Input line: Identify the outcome logged in this assay for the compound shown: O=[N+]([O-])c1nn(-c2ccc(Cl)cc2)n(O)c1=NCc1ccncc1
Output line: y

Input line: Identify the outcome logged in this assay for the compound shown: CN=c1scc(-c2ccccc2F)n1/N=C(\C)c1cccnc1
Output line: y

Input line: Identify the outcome logged in this assay for the compound shown: Cc1cc(Nc2ccccc2)c2c([N+](=O)[O-])ccc(C)c2n1
Output line: y

Input line: Identify the outcome logged in this assay for the compound shown: Cc1ncc([N+](=O)[O-])n1CCOC(=O)Nc1ccc(Cl)c(Cl)c1
Output line: y

Input line: Identify the outcome logged in this assay for the compound shown: Cc1cccc(NC(=O)c2ccc([N+](=O)[O-])s2)c1C
Output line: y

Input line: Identify the outcome logged in this assay for the compound shown: COc1cc2c3c(c1OC)C1(C=CC(=NNC(N)=O)C=C1)CC3N(C(C)=O)CC2 (stereo not drawn)
Output line: n

Input line: Identify the outcome logged in this assay for the compound shown: CN=c1c([N+](=O)[O-])nn(-c2ccc3c(c2)OCCO3)n1O
Output line: y

Input line: Identify the outcome logged in this assay for the compound shown: CCCCCC(=O)N/N=C/c1ccc([N+](=O)[O-])o1
Output line: y

Input line: Identify the outcome logged in this assay for the compound shown: O=C1c2ccc3c4c(ccc(c24)C(=O)N1CCCCO)C(=O)N(CCCCO)C3=O
Output line: y

Input line: Identify the outcome logged in this assay for the compound shown: O=C(N/N=C/c1ccc([N+](=O)[O-])s1)C(O)c1ccccc1 (stereo not drawn)
Output line: y

Input line: Identify the outcome logged in this assay for the compound shown: O=C(Nc1ccc2oc(-c3ccncc3)nc2c1)c1ccc([N+](=O)[O-])o1
Output line: y

Input line: Identify the outcome logged in this assay for the compound shown: O=[N+]([O-])c1cccc(/C=C/c2nc[nH]c2[N+](=O)[O-])c1
Output line: y

Input line: Identify the outcome logged in this assay for the compound shown: COc1cc(/C=C(\NC(=O)c2ccccc2)C(=O)NCCO)c([N+](=O)[O-])cc1OC
Output line: n

Input line: Identify the outcome logged in this assay for the compound shown: COc1ccccc1Nc1cc(C)nc2c(C)ccc([N+](=O)[O-])c12
Output line: y

Input line: Identify the outcome logged in this assay for the compound shown: COc1ccc(NC(=O)c2ccco2)c(NC(=O)c2ccc([N+](=O)[O-])cc2)c1
Output line: y

Input line: Identify the outcome logged in this assay for the compound shown: COc1cc(NC(=O)c2ccc([N+](=O)[O-])o2)ccc1NC(=O)c1cccs1
Output line: y

Input line: Identify the outcome logged in this assay for the compound shown: Nc1ccc(-c2cnc(-c3ccc(N)cc3)nc2)cc1
Output line: y

Input line: Identify the outcome logged in this assay for the compound shown: COc1ccc(NC(=O)OCCn2c([N+](=O)[O-])cnc2C)cc1
Output line: y

Input line: Identify the outcome logged in this assay for the compound shown: Cc1ccc(Nc2cc(C)nc3c(C)ccc([N+](=O)[O-])c23)cc1
Output line: y

Input line: Identify the outcome logged in this assay for the compound shown: O=C(Nc1ccc2oc(-c3cccnc3)nc2c1)c1ccc([N+](=O)[O-])o1
Output line: y

Input line: Identify the outcome logged in this assay for the compound shown: CCCOC(=O)/C(=C\c1ccc([N+](=O)[O-])o1)NC(=O)c1ccccc1
Output line: y

Input line: Identify the outcome logged in this assay for the compound shown: NC(=O)c1ccsc1NC(=O)c1ccc(N2CCCC2=O)cc1
Output line: y

Input line: Identify the outcome logged in this assay for the compound shown: Cc1cnc([N+](=O)[O-])n1CCOC(=O)NC(=O)c1ccccc1
Output line: y

Input line: Identify the outcome logged in this assay for the compound shown: O=[N+]([O-])c1ccc(/C=N/Nc2ncccc2[N+](=O)[O-])s1
Output line: y

Input line: Identify the outcome logged in this assay for the compound shown: Cc1ncc([N+](=O)[O-])n1CCOC(=O)NC(NCc1ccccc1Cl)C(Cl)(Cl)Cl (stereo not drawn)
Output line: y

Input line: Identify the outcome logged in this assay for the compound shown: CCOC(=O)Cc1csc(NC(=S)NC(=O)c2ccc(C)cc2)n1
Output line: y

Input line: Identify the outcome logged in this assay for the compound shown: COc1ccc(-c2ncn(CCC#N)c2[N+](=O)[O-])cc1
Output line: y

Input line: Identify the outcome logged in this assay for the compound shown: O=C(NN(c1ccccc1)c1ccccc1)c1ccc([N+](=O)[O-])o1
Output line: y

Input line: Identify the outcome logged in this assay for the compound shown: CN=C1C=C/C(=N/N=c2\ccn(O)cc2C)C=C1C
Output line: y

Input line: Identify the outcome logged in this assay for the compound shown: O=[N+]([O-])c1[nH]cnc1/C=C/c1ccccc1
Output line: y

Input line: Identify the outcome logged in this assay for the compound shown: COc1cc(C2CC(=O)Oc3cc(C)c(Cl)c(C)c32)cc(OC)c1OC (stereo not drawn)
Output line: n

Input line: Identify the outcome logged in this assay for the compound shown: O=C(Nc1cccc2ccccc12)c1ccc([N+](=O)[O-])s1
Output line: y

Input line: Identify the outcome logged in this assay for the compound shown: CCOc1cc([N+](=O)[O-])cc(/C=C2/NC(=O)N(Cc3ccccc3F)C2=O)c1O
Output line: y

Input line: Identify the outcome logged in this assay for the compound shown: CCOC(=O)c1ccc(NS(C)(=O)=O)cc1
Output line: n

Input line: Identify the outcome logged in this assay for the compound shown: Cc1ccc(CN=c2c([N+](=O)[O-])nn(-c3ccc(Cl)cc3)n2O)cc1
Output line: y
